Entry source: patent US20240391931A1

Recorded measurements of EC50, one per entry
target: HER2YVMA (Homo sapiens, UniProt P04626, INS775YVMA); test: HER2 signaling (pHER2) in Hek293-HER2YVMA cells; assay type: cell-based; design: expressed in transfected cells; host or cells: HEK293 (pool), Ba/F3 (clones), BEAS2B (clones); lentiviral vector pCDH-CMV-MCS-EF1-Neo; conditions: 1.5 hr compound, 1% FBS, read-out: HEKYVMA pHER2 EC50
Sequence (P04626 with tags, fused parts or gaps INS775YVMA): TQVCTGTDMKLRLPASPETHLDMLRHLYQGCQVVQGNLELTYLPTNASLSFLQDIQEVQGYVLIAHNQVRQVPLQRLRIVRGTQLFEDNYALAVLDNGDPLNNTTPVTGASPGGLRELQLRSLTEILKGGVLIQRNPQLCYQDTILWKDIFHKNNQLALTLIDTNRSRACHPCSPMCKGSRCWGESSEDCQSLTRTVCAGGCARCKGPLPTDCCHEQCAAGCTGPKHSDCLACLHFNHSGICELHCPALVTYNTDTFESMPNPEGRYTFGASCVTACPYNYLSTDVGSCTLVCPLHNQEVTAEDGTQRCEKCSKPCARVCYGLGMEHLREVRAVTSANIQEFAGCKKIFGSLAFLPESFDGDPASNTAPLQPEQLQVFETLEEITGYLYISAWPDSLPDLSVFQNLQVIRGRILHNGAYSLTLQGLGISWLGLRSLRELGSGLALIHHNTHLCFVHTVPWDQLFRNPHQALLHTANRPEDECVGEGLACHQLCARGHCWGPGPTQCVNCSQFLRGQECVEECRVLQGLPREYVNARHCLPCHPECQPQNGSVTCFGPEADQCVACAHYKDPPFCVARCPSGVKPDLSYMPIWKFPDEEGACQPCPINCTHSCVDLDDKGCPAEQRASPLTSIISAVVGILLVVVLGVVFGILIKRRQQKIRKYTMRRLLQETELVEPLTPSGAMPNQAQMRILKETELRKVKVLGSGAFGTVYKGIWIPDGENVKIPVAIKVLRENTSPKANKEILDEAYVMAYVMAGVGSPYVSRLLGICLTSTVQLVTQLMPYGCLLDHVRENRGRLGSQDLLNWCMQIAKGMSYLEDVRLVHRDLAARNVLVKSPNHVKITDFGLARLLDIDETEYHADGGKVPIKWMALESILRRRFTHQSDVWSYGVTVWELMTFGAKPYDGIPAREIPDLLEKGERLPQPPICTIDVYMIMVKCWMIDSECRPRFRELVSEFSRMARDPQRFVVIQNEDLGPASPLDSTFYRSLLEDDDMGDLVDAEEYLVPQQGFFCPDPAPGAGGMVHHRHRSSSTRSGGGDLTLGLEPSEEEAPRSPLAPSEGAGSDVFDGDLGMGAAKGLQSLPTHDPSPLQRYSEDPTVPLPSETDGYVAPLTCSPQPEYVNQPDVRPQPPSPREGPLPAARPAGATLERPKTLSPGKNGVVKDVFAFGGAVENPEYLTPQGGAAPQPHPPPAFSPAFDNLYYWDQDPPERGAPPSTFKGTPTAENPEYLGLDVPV

Any idea what EC50 came out for Cc1cc(Nc2ncnc3sc4c(c23)CCN(C(=O)/C=C/CN(C)C)C4)ccc1Oc1cccc(B(O)O)c1 on HER2YVMA (Homo sapiens, UniProt P04626, INS775YVMA)?
< 100 nM

Give HER2YVMA (Homo sapiens, UniProt P04626, INS775YVMA) EC50 for Cc1ccc(Oc2ccc(Nc3ncnc4sc5c(c34)CCN(C(=O)/C=C/CN3CC(O)CO3)C5)cc2C)cn1 (stereo not shown)
350 to 1000 nM

Requested read-out EC50, target or system HER2YVMA (Homo sapiens, UniProt P04626, INS775YVMA), entry Cc1ccc(Oc2ccc(Nc3ncnc4sc5c(c34)CCN(C(=O)/C=C/CN3C[C@H]4CC[C@@H](C3)O4)C5)cc2C)cn1
< 100 nM

Request: EC50, test system HER2YVMA (Homo sapiens, UniProt P04626, INS775YVMA), entry Cc1ccc(Oc2ccc(Nc3ncnc4sc5c(c34)CCN(C(=O)/C=C/CN3CC4(C3)CS(=O)(=O)C4)C5)cc2C)cn1
< 100 nM

Hi! What's the reported EC50 for Cc1ccc(Oc2ccc(Nc3ncnc4sc5c(c34)CCN(C(=O)/C=C/CN3CCC[C@H](CO)C3)C5)cc2C)cn1 on HER2YVMA (Homo sapiens, UniProt P04626, INS775YVMA)?
< 100 nM

GET /values?readout=EC50&system=HER2YVMA (Homo sapiens, UniProt P04626, INS775YVMA)&item= Cc1ccc(Oc2ccc(Nc3ncnc4sc5c(c34)CCN(C(=O)/C=C/CN3CCN4C(=O)CCC4C3)C5)cc2C)cn1 (stereo not shown)
350 to 1000 nM

With those in mind, consider the next compound.
Entry Cc1nc2cc(Oc3ccc(Nc4ncnc5sc6c(c45)CCN(C(=O)/C=C/CN(C)C)C6)cc3C)ccn2n1 , system HER2YVMA (Homo sapiens, UniProt P04626, INS775YVMA): what EC50 was measured?
< 100 nM

====

Biological target: EGFR (Homo sapiens, UniProt P00533)
Sequence (P00533 25-1210): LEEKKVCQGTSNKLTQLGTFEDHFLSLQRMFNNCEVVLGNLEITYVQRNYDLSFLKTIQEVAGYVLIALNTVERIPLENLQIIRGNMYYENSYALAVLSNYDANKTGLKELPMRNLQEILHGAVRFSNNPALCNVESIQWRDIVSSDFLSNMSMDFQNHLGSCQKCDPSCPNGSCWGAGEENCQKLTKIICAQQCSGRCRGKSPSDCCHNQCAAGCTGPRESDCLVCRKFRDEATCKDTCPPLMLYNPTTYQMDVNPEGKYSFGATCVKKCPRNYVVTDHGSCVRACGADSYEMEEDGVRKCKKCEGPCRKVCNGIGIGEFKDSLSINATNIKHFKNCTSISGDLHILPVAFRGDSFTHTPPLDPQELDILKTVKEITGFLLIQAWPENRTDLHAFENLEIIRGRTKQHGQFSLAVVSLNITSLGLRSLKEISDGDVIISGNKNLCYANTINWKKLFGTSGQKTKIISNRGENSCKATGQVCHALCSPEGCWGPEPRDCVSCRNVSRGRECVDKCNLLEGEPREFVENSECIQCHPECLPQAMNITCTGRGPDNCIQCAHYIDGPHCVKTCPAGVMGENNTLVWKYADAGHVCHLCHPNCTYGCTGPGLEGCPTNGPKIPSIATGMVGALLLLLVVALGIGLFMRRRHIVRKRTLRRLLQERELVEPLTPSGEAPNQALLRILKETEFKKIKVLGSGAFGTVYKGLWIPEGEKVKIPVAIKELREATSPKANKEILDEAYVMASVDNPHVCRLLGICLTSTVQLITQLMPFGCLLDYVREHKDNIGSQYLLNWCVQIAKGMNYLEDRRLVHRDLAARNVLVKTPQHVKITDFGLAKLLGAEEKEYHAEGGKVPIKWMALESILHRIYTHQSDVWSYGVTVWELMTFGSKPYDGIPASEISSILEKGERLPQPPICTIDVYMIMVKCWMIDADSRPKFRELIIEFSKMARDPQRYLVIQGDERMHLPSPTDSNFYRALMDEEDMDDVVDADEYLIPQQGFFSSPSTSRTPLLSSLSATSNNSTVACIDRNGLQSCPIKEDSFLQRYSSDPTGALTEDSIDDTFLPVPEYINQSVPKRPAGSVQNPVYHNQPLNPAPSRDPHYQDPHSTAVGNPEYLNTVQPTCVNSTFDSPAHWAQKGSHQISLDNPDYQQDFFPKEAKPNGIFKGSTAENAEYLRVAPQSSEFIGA
Experiment: EGFR signaling (pEGFR Tyr1068/total EGFR MSD) in A431 cells
Assay type: cell-based
Set-up: endogenous in cells; host or cells: A431, N87
Details: ratio A431 pEGFR EC50 to HEK YVMA pHER2 EC50
Source text: In addition to the engineered cell lines, the following cell lines were used: BT474 (human breast carcinoma), N87 (human gastric carcinoma), NCI-H1781 (human lung adenocarcinoma), and A431 (human epidermoid carcinoma); all cell lines were obtained from the American Type Culture Collection (ATCC, Manassas, VA). […]
Readout Type: Selectivity A431 EC50/HEKYVMA EC50

Name the recorded Selectivity A431 EC50/HEKYVMA EC50 for Cc1ccc(Oc2ccc(Nc3ncnc4sc5c(c34)CCN(C(=O)/C=C/CNCCO)C5)cc2C)cn1 [Compound 65] .
E (E: >1 and < 5)

Name the reported Selectivity A431 EC50/HEKYVMA EC50 value associated with the compound Cc1ccc(Oc2ccc(Nc3ncnc4sc5c(c34)C(C)CN(C(=O)/C=C/CN(C)C(C)(C)C)C5)cc2C)cn1 (stereo not shown) [Compound 175]
E (E: >1 and < 5)
